assay: gradient 5% acetonitrile 3 min, to 50% in 2 min, to 85% in 15 min, held 3 min, 100 µL/min; settings: column: Zorbax Extend-C18 2.1 x 50 mm; eluents: water / acetonitrile, 0.1% formic acid
parameter: RP-LC retention time (s)

Known RP-LC retention time results, listed for orientation:
| compound | RP-LC retention time / s |
| --- | --- |
| O=C(Cn1ccc2ccccc21)N1CCC(COCc2ccccc2)CC1 | 1020 |
| CCCN1C(=O)c2c(C(=O)NCc3ccccc3F)ncn2CC1(C)C(=O)NCCC(C)C (stereo not given) | 836 |
| CCOc1ccc(C(=O)Nc2cccnc2)nn1 | 552 |
| COCC(=O)N(C1CCOCC1)C1CCN(S(=O)(=O)c2cccnc2)CC1 | 641 |
| CCc1cccc(NC(=O)Cn2ncc3c(c2=O)N(CC2CC2)C(=O)CS3)c1 | 859 |

(P) O=S(=O)(Nc1ccc(N2CCOCC2)cc1)C1CC1
(Q) c1ccc(-c2nc(CSc3ccc(-n4cccn4)nn3)cs2)cc1
Lower value of RP-LC retention time belongs to which: P or Q ? Give the chosen item's label as your response.
P
(P: 623 s, Q: 1020 s)

----------
assay: gradient 5% acetonitrile 3 min, to 50% in 2 min, to 85% in 15 min, held 3 min, 100 µL/min; settings: column: Zorbax Extend-C18 2.1 x 50 mm; eluents: water / acetonitrile, 0.1% formic acid
parameter: RP-LC retention time (s)

(A) NC(=O)C1CCN(C(=O)CCn2cnc3cc(S(=O)(=O)N4CCCC4)ccc32)CC1
(B) COc1cc(NC(=O)C2CCN(S(=O)(=O)c3ccc4c(c3)sc(=O)n4C)CC2)cc(OC)c1
RP-LC retention time comparison. Which is larger, A or B ? Output the label that corresponds to your choice.
B
(B: 875 s, A: 577 s)

(I) O=C(Nc1ccc(C(=O)N2CCN(c3ccccn3)CC2)cc1)C1=CSCCO1
(II) COC(=O)c1cccc(NC(=O)N2CCC(c3nc(C(=O)N(C)C)c(C)o3)CC2)c1
Of I and II , which shows the smaller RP-LC retention time value? Respond with the label that goes with your answer.
I

(a) Cc1cccc(N2CCN(C(=O)C3=CCN(Cc4ccccc4)CC3)CC2)c1
(b) CCc1nn(CC)c(=O)c2cc(S(=O)(=O)NCc3ccc(F)cc3Cl)cn12
I'd appreciate it if you could identify which of a and b has the greater RP-LC retention time. Output the label that corresponds to your choice.
b

----------
experiment: gradient 5% acetonitrile 3 min, to 50% in 2 min, to 85% in 15 min, held 3 min, 100 µL/min; settings: column: Zorbax Extend-C18 2.1 x 50 mm; eluents: water / acetonitrile, 0.1% formic acid
parameter: RP-LC retention time (s)

Worked examples, 3 compounds total:
| smiles.text | unit.of.measure | RP-LC retention time |
| --- | --- | --- |
| CCCN1CCc2cccc3c2[C@H]1Cc1ccc(O)c(O)c1-3 | s | 652 |
| CC1(C)Cc2cccc(OCc3ccc(C(=O)NCc4ccccn4)cc3)c2O1 | s | 663 |
| CCOc1ccc2ncc(S(=O)(=O)c3ccccc3)c(N3CCN(C)CC3)c2c1 | s | 787 |

(P) Cc1cc(C)c2c(N3CCCC3)nc(C(=O)Nc3ccc(N4CCOCC4)cc3)nc2n1
(Q) CCOC(=O)C1CCN(c2ncc(S(=O)(=O)c3ccc(Cl)cc3)c(N)n2)CC1
Which one would you say has the larger RP-LC retention time value: P , or Q ? Please respond with the label that marks your chosen entry.
Q
(Q: 1030 s, P: 612 s)

These data points were gathered from the METLIN SMRT retention time set (Domingo-Almenara et al. 2019).
